Entries annotated with measured composite z-score
Molecular target: Follistatin (Homo sapiens)
Assay: FST protein binding to printed compounds – biochemical, small-molecule microarray, 635/667 nm fluorescence, primary screen (AID 1132)
Settings: 635 nm fluorescence, higher = more signal
parameter measured: composite z-score

>  <compound>
COC(=O)[C@@]1(Cc2ccc(F)cc2)[C@H]2c3cc(C(=O)N4CCCC4)n(Cc4ccc(Cl)c(C(F)(F)F)c4)c3C[C@H]2CN1C(=O)c1ccccc1

>  <value observed>
1.08

$$$$
>  <compound>
C=CCC(OC(C)=O)[C@@H]1[C@@H](N(Cc2ccc(-c3cccc(C(F)(F)F)c3)o2)C(=O)Cc2ccc(OC)cc2)c2cc(OCCCO)ccc2N1C(=O)Cc1ccc(OC)cc1 (stereo partly drawn)

>  <value observed>
0.544

$$$$
>  <compound>
COc1ccc([Si](C)(C)[C@H]2[C@H](CC(=O)N3CCC[C@H]3CO)O[C@@]3(C(=O)N(c4ccccc4)c4ccccc43)[C@@H]2C)cc1

>  <value observed>
0.813

$$$$

* * *

Molecular target: Homeobox protein Hox-A13 (Mus musculus)
Assay: disruptors of Hoxa13 oligonucleotide interaction – biochemical, fluorescence polarization, labeled oligonucleotide, primary screen (AID 1185)
Conditions: Hoxa13:DNA binding, 15 min, higher = more signal, called active from +8 up or from −8 down
z-score below -4 gives no; z-score at or above it gives yes.

>  <compound>
C[N+](C)(C)CCCC[C@@H]1NC(=O)[C@@H]2C[C@H](C(=O)NCCCCCCNC(=O)CS)[C@H](c3cccc(OCCO)c3)N2C1=O

>  <group label>
yes

$$$$
>  <compound>
O=C1C2C=CC(C(O)c3ccccn3)N(Nc3ccccc3F)C2C(=O)N1c1ccccc1 (stereo not given)

>  <group label>
yes

$$$$
>  <compound>
CCCCCCC#C[Si](O[C@H](c1ccccc1)c1cn([C@H](C)c2ccccc2)nn1)(C(C)C)C(C)C

>  <group label>
yes

$$$$
>  <compound>
CC(C)C(O)C1C=CC2C(=O)N(C)C(=O)C2N1N1CCCCC1 (stereo not given)

>  <group label>
no

$$$$
>  <compound>
C=C(CCCC)/C(=C/C[C@@H](OC(=O)c1ccncc1)c1ccc(CO)o1)c1cc(C(=O)OC)ccc1OC

>  <group label>
yes

$$$$
>  <compound>
CCCCC(=C=CC[C@H](O)c1ccccc1OCCO)C[C@H](O)c1cc(Cl)cc(Cl)c1O

>  <group label>
no

$$$$
>  <compound>
C=C(C)[C@@H]1CC=C(C(O)C2C=CC3C(=O)N(Cc4ccccc4)C(=O)C3N2n2cnnc2)CC1 (stereo not given in full)

>  <group label>
yes

$$$$
>  <compound>
C/C=C/[C@H](CCn1cc([C@H](O)c2ccccc2)nn1)[Si](C)(C)c1ccc(OC)cc1

>  <group label>
no

$$$$
>  <compound>
CC1CC/C=C\[C@H]2OC34C=CCN(Cn5nnc6ccccc65)C(=O)[C@H]3N(CCCO)C(=O)[C@@H]4C2C(=O)O1 (stereo not given in full)

>  <group label>
no

$$$$
>  <compound>
COCC1=C([C@H](O)CCc2ccccc2)[C@H](CO)[C@@H]2C(=O)N(Cc3ccccc3)C(=O)[C@@H]2C1

>  <group label>
no

$$$$
>  <compound>
CC(C)[C@H]1COC(=O)N1C(=O)[C@H]1[C@@H](c2ccccc2)N(c2ccccc2)O[C@@H]1C

>  <group label>
yes

$$$$
>  <compound>
CO[C@H]1O[C@H](CO)[C@@H](OC(=O)Nc2ccccc2-c2ccccc2)[C@H](OC(=O)Nc2ccccc2-c2ccccc2)[C@H]1OC(=O)Nc1ccccc1-c1ccccc1

>  <group label>
yes

$$$$
>  <compound>
COc1ccc([Si](C)(C)[C@@H]2[C@@H](CCn3cc([C@H](O)c4ccccc4)nn3)O[C@]3(C(=O)N(C)c4ccccc43)[C@H]2C)cc1

>  <group label>
no

$$$$
>  <compound>
CN(C)CCCCCCNC(=O)[C@@H]1C[C@@H]2C(=O)N[C@@H](Cc3ccccc3)C(=O)N2[C@@H]1c1cccc(OCCO)c1

>  <group label>
no

$$$$
>  <compound>
O=C1O[C@H](c2ccccc2)[C@H](c2ccccc2)N2[C@H]1[C@@H](C(=O)N1CCCCCCC1)[C@]1(C(=O)Nc3ccc(C#CC4=CCCCC4)cc31)[C@H]2c1ccc(O)cc1

>  <group label>
yes

$$$$
>  <compound>
[N-]=[N+]=NCc1ccccc1C[C@]1(C(=O)NCCN2CCOCC2)N=C(c2ccc(OCCCO)cc2)O[C@H]1c1ccccc1CN=[N+]=[N-]

>  <group label>
yes

$$$$
>  <compound>
COC(=O)[C@@]1(Cc2ccc(F)cc2)[C@H]2c3cc(C(=O)N(C)C)n(CCc4c[nH]c5ccc(OC)cc45)c3C[C@H]2CN1C(=O)c1ccccc1

>  <group label>
yes

$$$$
>  <compound>
OCCCc1cc[n+](Cc2cccc(OC(F)(F)F)c2)cc1

>  <group label>
yes

$$$$
>  <compound>
COC(=O)[C@@]1(Cc2ccc(OC)cc2)[C@H]2c3cc(C(=O)N(C)C)n(CCSCCO)c3C[C@H]2CN1C(=O)c1ccccc1

>  <group label>
no

$$$$
>  <compound>
C=CCC(OC(C)=O)[C@@H]1[C@@H](N(Cc2cc3ccccc3o2)C(=O)c2cccc3ccccc23)c2cc(OCCCO)ccc2N1C(=O)Cc1ccc(OC)cc1 (stereo not given in full)

>  <group label>
yes

$$$$
>  <compound>
C=CC[C@@]1(C(=O)OC)N=C(c2ccc(OCCCO)cc2)O[C@@H]1c1ccccc1CN=[N+]=[N-]

>  <group label>
yes

$$$$
>  <compound>
C[C@]1(C(=O)NCC(F)(F)F)c2ccccc2C(=O)N(Cc2cc(F)cc(C(F)(F)F)c2)[C@H]1c1ccc(CO)cc1

>  <group label>
yes

$$$$
>  <compound>
CCOC(=O)C[C@H]1[C@H](OC(=O)c2ccc(C(=O)c3ccccc3)cc2)[C@@H](NC(=O)c2ccc3ccccc3n2)c2cc(OCCCO)ccc2N1C(=O)c1ccc2ccccc2n1

>  <group label>
yes

$$$$
>  <compound>
CCCCN1CC=CC23O[C@@H]4C=CCCOC(=O)C4[C@H]2C(=O)N(CCCO)[C@@H]3C1=O (stereo not given in full)

>  <group label>
yes

$$$$
>  <compound>
COC(=O)c1c2oc(c1C(=O)OC)C(=O)N[C@H](Cc1ccccc1)Cn1nncc1C1(CCCCC1)NC(=O)N[C@H](CO)CC2

>  <group label>
yes

$$$$
>  <compound>
CCCNC(=O)[C@@]1(C)c2ccccc2C(=O)N(Cc2ccc(OC(F)(F)F)cc2)[C@H]1c1ccc(CO)cc1

>  <group label>
yes

$$$$
>  <compound>
COc1ccc(CCNC(=O)[C@@]2(C)c3ccccc3C(=O)N(Cc3ccccc3)[C@H]2c2ccc(CO)cc2)cc1

>  <group label>
no

$$$$
>  <compound>
CO[C@H]1O[C@H](CO)[C@@H](OC(=O)Nc2ccc3c(c2)OCO3)[C@H](OC(=O)Nc2ccc3c(c2)OCO3)[C@H]1OC(=O)Nc1ccc2c(c1)OCO2

>  <group label>
no

$$$$
>  <compound>
Cc1ccc([C@H]2C(C(=O)O)=C[C@@H](C(C)C)N2S(=O)(=O)c2ccc(C)cc2)cc1

>  <group label>
no

$$$$
>  <compound>
Cc1ccc(N2C(=O)c3ccccc3[C@@H](C(=O)NC(C)C)[C@@H]2c2ccc(CO)cc2)nc1

>  <group label>
yes

$$$$

// data source = PubChem BioAssay
